Values were extracted from ChEMBL document CHEMBL1135227.

# targetSystem: Muscarinic acetylcholine receptor M2 (Homo sapiens)
# Sequence (P08172 whole entry): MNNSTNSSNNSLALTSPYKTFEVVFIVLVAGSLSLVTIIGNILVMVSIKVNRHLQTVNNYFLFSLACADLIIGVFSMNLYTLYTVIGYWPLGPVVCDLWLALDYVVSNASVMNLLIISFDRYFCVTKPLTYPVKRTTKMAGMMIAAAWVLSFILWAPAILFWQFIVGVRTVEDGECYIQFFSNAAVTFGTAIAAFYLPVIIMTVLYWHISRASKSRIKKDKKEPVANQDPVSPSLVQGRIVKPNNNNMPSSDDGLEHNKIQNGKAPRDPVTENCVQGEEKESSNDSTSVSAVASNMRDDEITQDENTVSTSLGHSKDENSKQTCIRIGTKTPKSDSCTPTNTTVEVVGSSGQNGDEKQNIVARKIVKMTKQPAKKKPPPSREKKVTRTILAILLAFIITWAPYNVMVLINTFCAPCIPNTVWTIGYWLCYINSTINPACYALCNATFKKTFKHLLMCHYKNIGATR
# assayOverview: Binding affinity against human cloned Muscarinic acetylcholine receptor M2.
assayReadout: Ki
Don't forget the unit after the value.

1. C[C@@H]1CN(C2CCCCC2)CCN1[C@@H](C)c1ccc(S(=O)(=O)c2ccc3c(c2)OCO3)cc1
0.03 nM
2. C[C@@H]1CN(C2CCNCC2)CCN1[C@@H](C)c1ccc(S(=O)(=O)c2ccc3c(c2)OCO3)cc1
9 nM
3. CCCS(=O)(=O)N1CCC(N2CCN([C@@H](C)c3ccc(S(=O)(=O)c4ccc5c(c4)OCO5)cc3)[C@H](C)C2)CC1
0.2 nM

Just so you know, measured Ki for C[C@@H]1CN(C2CCCCC2)CCN1[C@H](C)c1ccc(S(=O)(=O)c2ccc3c(c2)OCO3)cc1 came out at 0.03 nM

Just so you know, measured Ki for C[C@@H]1CN(C2CCN(C(=O)c3ccccc3)CC2)CCN1[C@@H](C)c1ccc(S(=O)(=O)c2ccc3c(c2)OCO3)cc1 came out at 0.9 nM

Just so you know, measured Ki for CCCCC(=O)N1CCC(N2CCN([C@@H](C)c3ccc(S(=O)(=O)c4ccc5c(c4)OCO5)cc3)[C@H](C)C2)CC1 came out at 1.3 nM

Just so you know, measured Ki for COc1ccc(S(=O)(=O)c2ccc([C@@H](C)N3CCN(C4CCCCC4)C[C@H]3C)cc2)cc1 came out at 0.15 nM

Just so you know, measured Ki for CCCCS(=O)(=O)N1CCC(N2CCN([C@@H](C)c3ccc(S(=O)(=O)c4ccc5c(c4)OCO5)cc3)[C@H](C)C2)CC1 came out at 0.2 nM
